Test system: Nucleic Acid
Test: Thermal stability of c-MYC FPu18T G-quadruplex DNA assessed as stabilization temperature at 2 uM by FRET assay
Format: nucleic-acid assay
MEASURED METRIC: ΔTm (°C)

INSERT INTO measurements (chemical_smiles, output_unit, endpoint_result) VALUES
  ('COc1ccc2cc3[n+](cc2c1NCCN(C)C)CCc1cc2c(cc1-3)OCO2', '°C', 19),
  ('COc1ccc2cc3[n+](c4c2c1N(CCCCCCN)C=C4)CCc1cc2c(cc1-3)OCO2', '°C', 29);

I: COc1ccc2cc3[n+](c4c2c1N(CCCN(C)C)C=C4)CCc1cc2c(cc1-3)OCO2
II: COc1ccc2cc3[n+](cc2c1NCCCN1CCOCC1)CCc1cc2c(cc1-3)OCO2
III: COc1ccc2cc3[n+](cc2c1OC)CCc1cc2c(cc1-3)OCO2
[in] Let's sort these by ΔTm, smallest first. Go ahead? Show the ranking through the labels, in the order asked for.
[out] III, II, I

1: COc1ccc2cc3[n+](cc2c1NCCCCCCN)CCc1cc2c(cc1-3)OCO2
2: COc1ccc2cc3[n+](cc2c1NCCCN(C)C)CCc1cc2c(cc1-3)OCO2
[in] Field: lower recorded ΔTm (choose 1 or 2 ) Give the label under which the chosen entry appears.
[out] 2
(2: 20 °C, 1: 29 °C)
